- target.system: HMG-CoA reductase (Rattus norvegicus)
- Sequence (P51639 1-887): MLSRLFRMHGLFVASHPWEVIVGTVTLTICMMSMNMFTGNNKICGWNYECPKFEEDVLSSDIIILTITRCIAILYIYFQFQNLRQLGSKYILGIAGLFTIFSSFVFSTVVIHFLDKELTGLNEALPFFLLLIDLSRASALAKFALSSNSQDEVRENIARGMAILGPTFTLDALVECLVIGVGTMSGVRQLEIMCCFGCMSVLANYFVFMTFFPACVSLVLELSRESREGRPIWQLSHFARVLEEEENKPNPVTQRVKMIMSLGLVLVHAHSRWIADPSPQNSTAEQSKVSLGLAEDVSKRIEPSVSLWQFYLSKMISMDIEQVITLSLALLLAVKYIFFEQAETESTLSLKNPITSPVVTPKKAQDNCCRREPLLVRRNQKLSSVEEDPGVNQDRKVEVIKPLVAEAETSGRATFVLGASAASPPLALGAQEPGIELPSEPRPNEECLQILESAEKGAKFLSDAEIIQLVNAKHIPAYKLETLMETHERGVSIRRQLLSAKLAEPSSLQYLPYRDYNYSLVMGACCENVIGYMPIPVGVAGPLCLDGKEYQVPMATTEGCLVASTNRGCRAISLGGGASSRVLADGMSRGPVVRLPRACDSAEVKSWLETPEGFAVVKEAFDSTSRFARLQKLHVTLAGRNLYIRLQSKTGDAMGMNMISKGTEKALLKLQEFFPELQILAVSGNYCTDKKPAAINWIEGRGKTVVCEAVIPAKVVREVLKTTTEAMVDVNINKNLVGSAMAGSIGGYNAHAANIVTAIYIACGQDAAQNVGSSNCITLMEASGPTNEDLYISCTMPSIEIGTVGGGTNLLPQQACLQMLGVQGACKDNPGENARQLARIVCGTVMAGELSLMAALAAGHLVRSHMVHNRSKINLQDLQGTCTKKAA
- measurement.protocol: intrinsic HMG-CoA reductase inhibition, in vitro protocol of J. Med. Chem., 28, p. 347-358 (1985)
- Type: biochemical
- test.parameters: compactin (mevastatin) assigned 100; IC50 of test compound compared with that of compactin determined simultaneously
- Method: The intrinsic HMG-CoA reductase inhibition activity of the claimed compounds is measured in the in vitro protocol published in J. Med. Chem., 28, p. 347-358 (1985). For estimation of relative inhibitory potencies, compactin (i.e., mevastatin) was assigned a value of 100 and the IC50 value of the test compound was compared with that of compactin determined simultaneously in the published in vitro protocol.
parameter: Relative Potency

molecule=CCC(C)(C)C(=O)O[C@H]1C[C@@H](C)[C@@H](O)[C@@H]2C=C[C@H](C)[C@H](CC[C@@H]3C[C@@H](O)CC(=O)O3)[C@H]21 test_result=100
molecule=CCC(C)(C)C(=O)O[C@H]1C[C@@H](C)C(=O)[C@@H]2CC[C@H](C)[C@H](CC[C@@H]3C[C@@H](O)CC(=O)O3)[C@@H]12 test_result=125
molecule=CCC(C)(C)C(=O)O[C@H]1C[C@H](C)[C@H](O)[C@@H]2CC[C@H](C)[C@H](CC[C@@H]3C[C@@H](O)CC(=O)O3)[C@H]21 test_result=11.1
molecule=CCC(C)(C)C(=O)O[C@H]1C[C@H](C)[C@@H](O)[C@@H]2CC[C@H](C)[C@H](CC[C@@H]3C[C@@H](O)CC(=O)O3)[C@H]21 test_result=99.6
molecule=CCC(C)(C)C(=O)O[C@H]1C[C@@H](C)[C@@H](O)[C@@H]2CC[C@H](C)[C@H](CC[C@@H]3C[C@@H](O)CC(=O)O3)[C@H]21 test_result=50
molecule=CCC(C)(C)C(=O)O[C@H]1C[C@@H](C)[C@@H](OC(=O)N(Cc2ccccc2)Cc2ccccc2)[C@@H]2CC[C@H](C)[C@H](CC[C@@H]3C[C@@H](O)CC(=O)O3)[C@H]21 test_result=94

---

- target.system: HMG-CoA reductase (Rattus norvegicus, UniProt P51639)
- Sequence (P51639 1-887): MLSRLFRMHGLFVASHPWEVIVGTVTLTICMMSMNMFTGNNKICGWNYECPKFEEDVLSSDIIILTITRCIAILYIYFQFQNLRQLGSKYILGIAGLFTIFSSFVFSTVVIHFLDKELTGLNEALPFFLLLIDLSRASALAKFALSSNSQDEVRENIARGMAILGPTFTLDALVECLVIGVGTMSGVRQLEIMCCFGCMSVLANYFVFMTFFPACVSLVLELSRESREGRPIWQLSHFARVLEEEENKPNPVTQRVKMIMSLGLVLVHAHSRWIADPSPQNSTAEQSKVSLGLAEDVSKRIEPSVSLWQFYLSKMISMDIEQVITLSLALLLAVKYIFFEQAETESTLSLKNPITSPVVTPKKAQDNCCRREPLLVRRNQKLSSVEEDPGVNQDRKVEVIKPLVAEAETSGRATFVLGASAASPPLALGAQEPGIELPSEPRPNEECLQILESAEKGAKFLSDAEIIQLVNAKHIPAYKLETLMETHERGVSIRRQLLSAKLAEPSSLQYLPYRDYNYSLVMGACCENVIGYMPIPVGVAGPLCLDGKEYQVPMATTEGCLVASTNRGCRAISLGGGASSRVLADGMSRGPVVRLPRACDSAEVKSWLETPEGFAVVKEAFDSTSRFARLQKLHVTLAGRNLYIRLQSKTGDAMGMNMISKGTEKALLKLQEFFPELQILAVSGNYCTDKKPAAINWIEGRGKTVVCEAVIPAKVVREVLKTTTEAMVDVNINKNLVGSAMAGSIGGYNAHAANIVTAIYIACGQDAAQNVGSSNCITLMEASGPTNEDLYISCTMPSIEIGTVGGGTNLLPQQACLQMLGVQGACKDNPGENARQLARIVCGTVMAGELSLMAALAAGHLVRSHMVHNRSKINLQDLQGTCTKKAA
- measurement.protocol: intrinsic HMG-CoA reductase inhibition, in vitro protocol of J. Med. Chem., 28, p. 347-358 (1985)
- Assay type: biochemical
- test.parameters: compactin (mevastatin) assigned 100; IC50 of test compound compared with that of compactin determined simultaneously
parameter: Relative Potency

molecule=CCC(C)(C)C(=O)O[C@H]1C[C@@H](C)[C@@H](OP(=O)(c2ccccc2)c2ccccc2)[C@@H]2CC[C@H](C)[C@H](CC[C@@H]3C[C@@H](O)CC(=O)O3)[C@H]21 test_result=300
molecule=CCC(C)(C)C(=O)O[C@H]1C[C@@H](C)[C@@H](OC(=O)NCc2ccccc2)[C@@H]2CC[C@H](C)[C@H](CC[C@@H]3C[C@@H](O)CC(=O)O3)[C@H]21 test_result=360
molecule=CCC(C)(C)C(=O)O[C@H]1C[C@@H](C)[C@@H](OCCc2ccccc2)[C@@H]2CC[C@H](C)[C@H](CC[C@@H]3C[C@@H](O)CC(=O)O3)[C@H]21 test_result=300
